biological target: Protein O-GlcNAcase (Rattus norvegicus, UniProt Q8VIJ5); assay: Inhibition of OGA in rat PC12 cells assessed as OGlcNAcylated protein level incubated for 24 hrs by ELISA
Sequence (Q8VIJ5 whole entry): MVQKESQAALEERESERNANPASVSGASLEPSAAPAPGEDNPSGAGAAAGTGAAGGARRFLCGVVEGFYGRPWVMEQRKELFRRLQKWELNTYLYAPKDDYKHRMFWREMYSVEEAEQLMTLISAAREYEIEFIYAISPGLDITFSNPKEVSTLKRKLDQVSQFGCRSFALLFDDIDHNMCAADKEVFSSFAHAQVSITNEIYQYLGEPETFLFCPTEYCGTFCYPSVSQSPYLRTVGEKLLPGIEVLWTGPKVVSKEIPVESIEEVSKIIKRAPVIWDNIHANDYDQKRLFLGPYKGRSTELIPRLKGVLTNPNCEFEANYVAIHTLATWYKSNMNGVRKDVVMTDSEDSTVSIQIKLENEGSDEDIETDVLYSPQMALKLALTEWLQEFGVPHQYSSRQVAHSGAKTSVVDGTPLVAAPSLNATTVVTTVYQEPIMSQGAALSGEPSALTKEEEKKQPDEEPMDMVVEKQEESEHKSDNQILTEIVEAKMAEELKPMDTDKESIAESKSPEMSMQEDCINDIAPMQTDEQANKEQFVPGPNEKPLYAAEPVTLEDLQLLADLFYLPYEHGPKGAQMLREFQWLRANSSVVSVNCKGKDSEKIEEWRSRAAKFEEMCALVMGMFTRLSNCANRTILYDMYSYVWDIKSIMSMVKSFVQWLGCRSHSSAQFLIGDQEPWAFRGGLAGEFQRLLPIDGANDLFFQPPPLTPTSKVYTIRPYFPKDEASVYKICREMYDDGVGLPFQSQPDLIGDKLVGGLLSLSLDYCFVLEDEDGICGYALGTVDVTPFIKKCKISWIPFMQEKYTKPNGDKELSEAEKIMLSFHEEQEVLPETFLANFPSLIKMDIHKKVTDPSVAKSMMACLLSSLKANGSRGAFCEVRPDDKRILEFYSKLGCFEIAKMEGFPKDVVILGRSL
pEC50: −log10 of the molar value.
measured_quantity: pEC50

Examples from the recorded data:
CCNC1=N[C@@H]2[C@@H](F)[C@H](O)[C@@H](CO)O[C@@H]2S1 = 6.35
CNC1=N[C@@H]2[C@@H](O)[C@H](O)[C@@H](C(F)F)O[C@@H]2S1 = 8.77
CNC1=N[C@@H]2[C@H](F)[C@H](O)[C@@H](C(F)F)O[C@@H]2S1 = 7.24

(I) CN(C)C1=N[C@@H]2[C@@H](O)[C@H](O)[C@@H](C(F)F)O[C@@H]2S1
(II) CNC1=N[C@@H]2[C@H](F)[C@H](O)[C@@H](CF)O[C@@H]2S1
QUERY: // compare measured pEC50 between I and II ; output the lower one Respond using the label that marks the chosen record.
RESULT: II

* * *

test: AUCN in Wistar Han rat at 10 mg/kg, po; type: ADME, organism-based; conditions: in vivo
measured_quantity: AUC/dose (µM·kg·h/mg)

Worked cases, answers included:
CNC1=N[C@@H]2C[C@H](O)[C@@H](CO)O[C@@H]2S1 = 2.53
CCN(C)C1=N[C@@H]2[C@@H](O)[C@H](O)[C@@H](CO)O[C@@H]2S1 = 0.598
CCNC1=N[C@@H]2[C@@H](O)[C@H](O)[C@@H](CO)O[C@@H]2S1 = 0.8
CCNC1=N[C@@H]2[C@@H](O)[C@H](O)[C@@H](C(F)F)O[C@@H]2S1 = 1.4

(I) OC[C@H]1O[C@@H]2SC(N3CCC3)=N[C@@H]2[C@@H](O)[C@@H]1O
(II) CCNC1=N[C@@H]2[C@@H](F)[C@H](O)[C@@H](CO)O[C@@H]2S1
QUERY: Between I and II , whose measured AUC/dose reads higher? Lab note: record the label of whichever item you select.
RESULT: II
(II: 2.16 µM·kg·h/mg, I: 1.15 µM·kg·h/mg)

* * *

assay: Tmax in rat brain at 10 mg/kg, po measured upto 24 hrs; assay type: ADME, organism-based
measured_quantity: Tmax (h)

CCNC1=N[C@@H]2[C@@H](O)[C@H](O)[C@@H](C(F)F)O[C@@H]2S1 = 8
CNC1=N[C@@H]2[C@H](F)[C@H](O)[C@@H](C(F)F)O[C@@H]2S1 = 8
CCNC1=N[C@@H]2[C@@H](O)[C@H](O)[C@@H](CO)O[C@@H]2S1 = 8

(A) CNC1=N[C@@H]2C[C@H](O)[C@@H](C(F)F)O[C@@H]2S1
(B) CN(C)C1=N[C@@H]2[C@@H](O)[C@H](O)[C@@H](C(F)F)O[C@@H]2S1
QUERY: Which one would you say has the larger Tmax value: A , or B ? Output the label that corresponds to your choice.
RESULT: B

* * *

assay: Oral bioavailability in Wistar Han rat at 10 mg/kg; type: ADME, organism-based; conditions: in vivo
measured_quantity: bioavailability (%)

CCNC1=N[C@@H]2[C@@H](O)[C@H](O)[C@@H](CO)O[C@@H]2S1 = 30
CCNC1=N[C@@H]2[C@@H](F)[C@H](O)[C@@H](CO)O[C@@H]2S1 = 104
CCN(C)C1=N[C@@H]2[C@@H](O)[C@H](O)[C@@H](CO)O[C@@H]2S1 = 62
OC[C@H]1O[C@@H]2SC(N3CCC3)=N[C@@H]2[C@@H](O)[C@@H]1O = 96
CCNC1=N[C@@H]2[C@@H](O)[C@H](O)[C@@H](C(F)F)O[C@@H]2S1 = 80

(A) CNC1=N[C@@H]2C[C@H](O)[C@@H](CO)O[C@@H]2S1
(B) CCCNC1=N[C@@H]2[C@@H](O)[C@H](O)[C@@H](CF)O[C@@H]2S1
QUERY: Please indicate which item has the smaller measured bioavailability: A versus B When you have decided, please share the label of that item.
RESULT: B
(B: 75.3%, A: 129%)
